Data origin: patent US20260374766A1

target: p53 Y220C (Homo sapiens, UniProt P04637, Y220C); test: Luciferase Reporter Assay (Luc), p53 response element, NClH1299 cells with inducible p53 Y220C; format: cell-based; conditions: Emax; NClH1299 cells with inducible p53 Y220C; 6 hour; 10 uM tool compound as positive control
The following molecules are listed with their measured Emax values.

Reference set (3 entries):
CNC(=O)c1ccc(O)c(NCC#Cc2cc3c(N[C@@H]4CCNC[C@@H]4F)cccn3c2SC(F)(F)F)c1 [Example 477]
80 to 90%
CNC(=O)c1ccc(OC)c(NCC#Cc2cc3c(N[C@@H]4CNC[C@@H]4F)cccn3c2SC(F)(F)F)c1 [Example 478]
> 90%
CNC(=O)c1ccc(NCC#Cc2cc3c(N[C@@H]4CCN(C)C[C@@H]4F)cccn3c2SC(F)(F)F)c(Cl)c1 [Example 466]
80 to 90%

Give the measured Emax of [2H]C([2H])([2H])Oc1cc(S(C)(=O)=O)ccc1NCC#Cc1nc2c(N[C@@H]3CCN(C)C[C@@H]3C)cccn2c1SC(F)(F)F [Example 454] .
> 90%

Can you share its Emax? I mean this molecule: CN1CC[C@@H](Nc2cccn3c(SC(F)(F)F)c(C#CCNc4cc(C(=O)NCC(C)(C)O)ccc4OC4COC4)cc23)[C@@H](F)C1 [Example 459]
> 90%

// query Emax value for entry CN1CC[C@@H](Nc2cccn3c(SC(F)(F)F)c(C#CCNc4ccc(C(=O)NC[C@H](O)CO)cc4)cc23)[C@@H](F)C1 [Example 460]
> 90%

Given CNC(=O)c1ccc(OC2COC2)c(NCC#Cc2cc3c(N[C@@H]4CCNC[C@@H]4F)cccn3c2SC(F)(F)F)n1 [Example 463] , state its recorded Emax.
> 90%

----------
biological target: p53 Y220C (Homo sapiens, UniProt P04637, Y220C); test: Luciferase Reporter Assay (Luc), p53 response element, NClH1299 cells with inducible p53 Y220C; assay type: cell-based; details: luciferase reporter, NClH1299 inducible p53 Y220C, 6 hour; read-out: Luc P53 Y220C AC50
experimental_endpoint: AC50

So what does the record say about AC50 for CNC(=O)c1cc(OC)c(NCC#Cc2nc3c(N[C@@H]4CCN(C)C[C@@H]4F)cccn3c2SC(F)(F)F)cc1Cl [Example 121] ?
< 750 nM

Could you tell me which AC50 is on file for CN1CC[C@@H](Nc2cccn3c(CC(F)(F)F)c(C#CCNc4ccc(S(C)(=O)=O)cc4F)nc23)[C@@H](F)C1 [Example 68] ?
1500 to 3000 nM

Request the reported AC50 associated with COc1cc(S(=O)(=O)C2CC2)ccc1NCC#Cc1nc2c(N[C@@H]3CCN(C)C[C@@H]3F)cccn2c1CC(F)(F)F [Example 67]
< 750 nM

----------
test system: H1299 p53 Y220C; test: Cell Proliferation Assay (CellTiter-Glo, CTG), H1299 p53 Y220C (NClH1299-inducible p53 Y220C); format: cell-based; conditions: Homo sapiens, NCI-H1299, 120 h, CellTiter-Glo, H1299 p53 Y220C, 5 days
Entries and their IC50

CCc1c(C#CCNc2ccc(S(C)(=O)=O)cc2OC)nc2c(N[C@@H]3CCN(C)C[C@@H]3F)cccn12 [Example 15]
1.5 to 3 µM

Now for the compound whose IC50 we want.
What does the data say about its IC50? Entry: CNC(=O)c1ccc(NCC#Cc2nn3c(N[C@@H]4CCN(C)C[C@@H]4F)nccc3c2SC(F)F)c(OC)c1 [Example 215]
< 0.75 µM

----------
Target: p53 Y220C mutant protein (amino acid residues 94-293) (Homo sapiens, UniProt P04637, Y220C)
Construct: p53 Y220C mutant protein (amino acid residues 94-293)
Experiment: Thermal Shift Assay (TSA), dTM
Type: binding
Conditions: thermal shift, 10 uM compound; read-out: TSA P53 Y220C dTM (10 uM)
Experimental: Thermal Shift Assay (TSA) Protocol 5 μM recombinant p53 Y220C mutant protein (amino acid residues 94-293) was incubated with 10 μM or 100 μM compound for 3 hours at 20 °C in buffer containing 20 mM HEPES, pH7.4, 100 mM NaCl, 0.01% Pluronic F-127, and 1% DMSO in the presence of 400-fold diluted Sypro Orange (ThermoFisher Scientific catalog number 4461146), on a 384-well PCR plate (Applied Biosystems catalog number 4483285). The volume was 5 μL/well. […]
experimental_endpoint: ΔTm at 10 µM

Recorded ΔTm at 10 µM, per entry:
CNC(=O)c1ccc(NCC#Cc2nc3c(N[C@H]4CCn5nccc5C4)cccn3c2SC(F)(F)F)c(OC)c1
5 to 10 °C
CNC(=O)c1ccc(OC)c(NCC#Cc2nc3c(N[C@@H]4CCNC[C@@H]4F)cccn3c2SC(F)F)n1
≥ 10 °C
CNC(=O)c1cncc(NCC#Cc2nc3c(N[C@@H]4CCN(C)C[C@@H]4F)cccn3c2SC(F)(F)F)c1
≥ 10 °C
CNC(=O)c1ccc(NCC#Cc2nc3c(N[C@@H]4CCNC(=O)C4)cccn3c2SC(F)(F)F)c(OC)c1
5 to 10 °C
CNC(=O)c1ccc(NCC#Cc2nc3c(N[C@@H]4CNC[C@@H]4F)cccn3c2SC(F)(F)F)c(OC)c1
≥ 10 °C
CNC(=O)c1ccc(OC)c(NCC#Cc2cc3c(N[C@@H]4CCNC[C@@H]4F)cccn3c2SC(F)(F)F)c1
≥ 10 °C

Moving on to another compound below.
Record request: ΔTm at 10 µM value, item COc1cc2c(cc1NCC#Cc1nc3c(N[C@@H]4CCN(C)C[C@@H]4F)cccn3c1SC(F)(F)F)CNC2=O
≥ 10 °C

----------
test system: H1299 p53 R273H; assay: Cell Proliferation Assay (CellTiter-Glo, CTG), H1299 p53 R273H (NClH1299-inducible p53 R273H); format: cell-based; conditions: Homo sapiens, NCI-H1299, 120 h, CellTiter-Glo, H1299 p53 R273H, 5 days
pIC50: −log10 of the molar value.
Entries and their pIC50

Worked examples, 10 compounds total:
CNC(=O)c1ccc(NCC#Cc2nc3c(N[C@@H]4CCN(C)C[C@@H]4F)cccn3c2SC(F)F)c(OC)c1
≤ 5.00
CN1CC[C@@H](Nc2cccn3c(CC(F)(F)F)c(C#CCNc4ccccc4)nc23)[C@@H](F)C1
≤ 5.00
COc1cc(S(C)(=O)=O)ccc1NCC#Cc1nc2c(N[C@@H]3CCNC[C@@H]3F)cccn2c1CC(F)(F)F
5.10 to 5.30
COc1cc(C(=O)NC(C)C)ccc1NCC#Cc1nc2c(N[C@@H]3CCN(C)C[C@@H]3F)cccn2c1SC(F)(F)F
5.00 to 5.10
CNC(=O)c1ccc(OC)c(NCC#Cc2nc3c(N[C@H]4C[C@@H]5CC[C@@H](N5)[C@H]4F)cccn3c2SC(F)(F)F)c1
5.10 to 5.30
C=C(F)C(=O)Nc1cc(NC2CCN(C)CC2)c2nc(C#CCNc3ccc(C(=O)NC)cc3OC)c(CC(F)(F)F)n2c1
≤ 5.00
CNC(=O)c1ccc(NCC#Cc2nc3c(N[C@H]4CCn5cncc5C4)cccn3c2SC(F)(F)F)c(OC)c1
5.10 to 5.30
COc1cc(S(C)(=O)=O)ccc1NCC#Cc1nc2c(N[C@H]3CCN(C)C[C@H]3F)cccn2c1CC(F)(F)F
≤ 5.00
CNC(=O)c1ccc(NCC#Cc2nc3c(N[C@H]4CN(C)CC[C@@H]4F)cccn3c2SC(F)(F)F)c(OC)c1
5.00 to 5.10
CNC(=O)c1ccc(NCC#Cc2nc3c(N[C@@H]4CCOC[C@@H]4F)cccn3c2SC(F)(F)F)c(OC)c1
≤ 5.00

Given CNC(=O)c1ccc(NCC#Cc2nc3c(N[C@@H]4CCN(C)C[C@@H]4F)cccn3c2CC(F)(F)F)cn1 , state its recorded pIC50.
≤ 5.00

State the recorded pIC50 for this entry: CNC(=O)c1ccc(NCC#Cc2nc3c(NC4CCN(C)CC4)cccn3c2SC(F)(F)F)c(OC)c1
5.10 to 5.30

----------
Each entry below carries its recorded Kd.
Molecular target: p53 Y220C mutant protein (amino acid residues 94-293) (Homo sapiens, UniProt P04637, Y220C)
Construct: p53 Y220C mutant protein (amino acid residues 94-293)
Assay: Surface Plasmon Resonance (SPR) assay, Kd_kinetic
Type: binding
Conditions: SPR, kinetic KD, p53 Y220C; read-out: SPR P53 Y220C KD kinetic
Procedure: Surface Plasmon Resonance (SPR) Assay Protocol SPR experiments were performed on a Biacore 8K instrument. […] The running buffer contained 50 mM Tris, pH 7.5, 100 mM NaCl, 1 mM DTT, 0.01% Brij35, 0.05% Tween-20 and 1% DMSO. The assay temperature was maintained at 16 or 20 °C and data were fit into the 1:1 binding model using the Biacore Insight Evaluation software.

Known Kd results, listed for orientation:
COc1cc(S(C)(=O)=O)ccc1NCC#Cc1nc2c(NC3CC4(COC4)C3)cccn2c1CC(F)(F)F
100 to 1000 nM
CCS(=O)(=O)c1ccc(NCC#Cc2nc3c(N[C@@H]4CCN(C)C[C@@H]4F)cccn3c2CC(F)(F)F)c(OC)c1
< 10 nM
CC#Cc1nc2c(N[C@@H]3CCN(C)C[C@@H]3F)cccn2c1CC(F)(F)F
10 to 100 nM
COc1cc(C(=O)NC(C)C)ccc1NCC#Cc1nc2c(N[C@@H]3CCN(C)C[C@@H]3F)cccn2c1SC(F)(F)F
< 10 nM
CNC(=O)c1c[nH]nc1NCC#Cc1nc2c(N[C@@H]3CCN(C)C[C@@H]3F)cccn2c1SC(F)(F)F
< 10 nM
CNC(=O)c1ccc(NCC#Cc2nc3c(N[C@H]4CCc5nncn5C4)cccn3c2SC(F)(F)F)c(OC)c1
< 10 nM

Looking for the measured Kd of CNC(=O)c1cncc(NCC#Cc2nc3c(N[C@@H]4CCN(C)C[C@@H]4F)cccn3c2SC(F)(F)F)c1 , can you help?
< 10 nM

Value lookup for Kd; key = CNC(=O)c1ccc(OC)c(NCC#Cc2nc3c(N[C@@H]4CCNC[C@@H]4F)cccn3c2SC(F)(F)F)c1
< 10 nM

Fill in: Kd of CNC(=O)c1ccc(NCC#Cc2cc3c(N[C@@H]4CCN(C)C[C@@H]4F)cccn3c2SC(F)F)c(OC)c1 is ___
< 10 nM

Name the recorded Kd for CNC(=O)c1ccc(NCC#Cc2cc3c(N[C@@H]4CCN(C)C[C@@H]4F)nccn3c2SC(F)F)c(OC)c1 .
< 10 nM
